Test: soluble on expression in E. coli; label from the status in PepcDB or PDB records
metric.name: soluble on expression in E. coli

biosequence	experimental.result
MSDEKSTTPTAQLDAPADGNMNDLTSLIQGVLQQTQDRFQHMSDQIIRRIDDMTTRIDDLEKNINDLLQSNQVEHPPSAQ	not soluble
RKNSQSETFKVGVLQYVSHNALDEIYRGIKAGLKEEGYSGKKIKIDFMNAEGDQSKVQTMSQTLVNHKNDVLVGIATPAAQGLASATKKTPIIMGAVTDPVGAKLVKDLKKPNGNVTGVSDKTPISDQVSLIKKLTPDVKTVGILYSSSEDNSKSQVEEFKKIAEKKGYKVLEYSVPSTNEIATTMNVMLDKTDAVWIPLDNTIASAFPTVVSAAKTAKKPIYPSVDTMVTEGGLASVVVDQYKLGVATGKMAVKVFEGKKVSQLPVDIFDKGTPVVNKKVAKELGIDIPSDILKKAKQQKNQ	not soluble
MQLISDRTSGAIHEIFGRDKALIGMIHCPPFPGAPRYRGETMDTIVDACLRDAERLVAGGLHGLVVENHGDIPFSKPDDIGPETAACLGVVTDRIRRAFGVPLGINVLANAPLPALAAAVAGGALFIRVNQWANAYVANEGFMEGRAAEAMRYRSLLRAEHVRIFADSHVKHGSHAIVADRSIPELTRDLAFFDADCIIATGQRTGDSATIAEIEEIGGATHLPLLVGSGVTEANVVEILKRTNGVIVASSLKEGGVWWNPVDPERVARFVAAAREGLDGLEHHHHHH	not soluble
